- EXPERIMENTAL PROTOCOL: SUPPLEMENTARY: PAMPA permeability assay
- Assay type: physicochemical
- STUDY CONDITIONS: read-out: Permeability
Mark Condition met for Papp under 2 ×10⁻⁶ cm/s, Condition not met if at or over.

- COc1ccc(Cl)cc1CN1C(=O)OCc2ccc(C(=O)Nc3ccc(CC(=O)O)cc3)cc21: Condition met
- Cc1cc(C)cc(S(=O)(=O)n2ccc3ccc(C(=O)Nc4ccc(C(=O)O)cc4)cc32)c1: Condition met
- COc1ccc(Cl)cc1S(=O)(=O)Nc1cc(C(=O)Nc2ccccc2)ccc1/C=C/C(=O)O: Condition met
- COc1ccc(Cl)cc1Cn1ccc2ccc(C(=O)Nc3nc(CC(=O)O)cs3)cc21: Condition met
- O=C(COc1ccccc1)N1CCCC[C@@H]1c1noc(-c2cnc3[nH]cnc3c2)n1: Condition not met

Here is another compound to look at.
Criterion: Papp strictly below 2 ×10⁻⁶ cm/s. Is it met by COc1ccc(Cl)cc1S(=O)(=O)N1CCc2ccc(C(=O)Nc3ccc(C(=O)O)cc3)cc21 ?
Condition not met
